Assay: in vitro
Conditions: human, hela cells, % viability

{"columns": ["compound", "viability at 28.5 h, 10 µM (%)"],
 "data": [
  ["Cc1[nH]c(=O)[nH]c(=S)c1C(=O)NCc1ccc(Cl)cc1", 106],
  ["Cc1cc2nc(NC(=N)N)nc(C)c2cc1C", 83.8],
  ["CN(C)Cc1cc(-c2ccccc2F)nn1CCNC(=O)C1CCC1", 93.1],
  ["COc1ccc(C(NC(=O)N2CCN(C(=O)OCc3ccccc3)CC2)c2ccccc2C)cn1 (stereo not drawn)", 91.2],
  ["CC(C)(C)Nc1c(C2CCN(C(=O)C3CC3)CC2)nc2ccccn12", 104],
  ["Clc1ccc(OCCOc2nccnc2N2CCNCC2)cn1 [CBK014049G]", 92.5],
  ["CN1C(=O)CC2(C1=O)C(=O)N(Cc1nc(-c3ccc(Cl)cc3)no1)c1ccc(F)cc12 (stereo not drawn)", 87.8],
  ["CCSc1nc2ccccc2n1CC(=O)O", 87.7],
  ["NC(=O)c1c(NC(=O)c2ccc(S(=O)(=O)N3CCCC3)cc2)sc2c1CCCC2", 106]
]}

====

Assay: in vitro
Details: human, hela cells, % viability

{"columns": ["compound", "display unit", "viability at 28.5 h, 10 µM"],
 "data": [
  ["Cc1ccc(-c2cc(CC3(C(=O)NC4CC4)CCOCC3)on2)cc1", "%", 99.7],
  ["CSCCCNC(=O)c1ccc2[nH]ccc2c1", "%", 100],
  ["CC(C)(C)NC(=O)C[C@@H]1CCNC[C@@H]1Cc1cc(-c2ccc(F)cc2)on1", "%", 99.2],
  ["COCC1(O)CCN(Cc2sccc2Cl)CC1", "%", 98.7],
  ["CN(C)CC1CCCCN1C(=O)C1CC(=O)N(c2cccc(F)c2)C1 (centres unmarked)", "%", 108],
  ["O=C(NCCCO)C1CCCN(S(=O)(=O)c2ccc3ccccc3c2)C1 (centres unmarked)", "%", 88.3],
  ["CCOC(=O)C1(C2CCCCC2)CCN(C(=O)CCSC)CC1", "%", 113],
  ["CSCC(=O)N1CC[C@H](NC(=O)NC2CCCCC2)[C@H]1C(=O)N1CCC[C@@H]1C(N)=O", "%", 124],
  ["CC1=C(C(=O)OC(C)C)C(c2cccc(I)c2)C2=C(CCCC2=O)N1 (centres unmarked)", "%", 86.5],
  ["N#Cc1c(NC(=O)CSc2nnc(-c3ccc(Cl)cc3)o2)oc(-c2ccccc2)c1-c1ccccc1", "%", 93.9],
  ["O=C(Nc1ccc(F)cc1)c1ccc(NS(=O)(=O)c2ccc(Br)cc2)cc1", "%", 103],
  ["CCCc1[nH]nc(O)c1Cc1ccc(C(C)C)cc1", "%", 106],
  ["Cc1ccc(C(=O)O)cc1S(=O)(=O)Nc1ccc(-c2cn3ccsc3n2)cc1", "%", 85.2],
  ["Cc1[nH]c2ccccc2c1/C=C1/SC(=S)N(CC(=O)O)C1=O", "%", 118],
  ["O=C1CCCC2=C1C(c1ccc(OCc3ccccc3)cc1)c1c([nH][nH]c1=O)N2 (centres unmarked)", "%", 92.1],
  ["CCCn1cc(CN2CC3C[C@@H](O)CN3C[C@@H]2C)c2ccccc21 (some centres unmarked)", "%", 104],
  ["CN(C)CCN(C)S(=O)(=O)c1ccc(C(C)(C)C)cc1 [CBK059035T]", "%", 94.7],
  ["Cc1cc2nc(/C(C#N)=C/c3cc(C)n(-c4ccc(C(=O)O)cc4)c3C)[nH]c2cc1C", "%", 92.1],
  ["COc1ccccc1CC(c1ccccc1)C1CN(C)CCO1 (centres unmarked) [CBK009925C]", "%", 116],
  ["O=S(=O)(c1ccc(-c2ccccc2)cc1)n1ccc2cc(N3CCN(Cc4ccccc4)CC3)ccc21 [CBK001388C]", "%", 115],
  ["O=C(Nc1ccccc1-c1nc2ccccc2[nH]1)c1ccc2c(c1)OCCO2", "%", 104],
  ["COc1ccc(C(=O)Nc2nc3c(C)cccc3s2)c(OC)c1", "%", 82.6],
  ["CCCCCCOC(=O)c1ccc2c(c1)C(=O)N(c1cccc(N)c1)C2=O", "%", 106],
  ["O=C(O)C(=O)c1cn(Cc2ccccc2Cl)c2ccccc12", "%", 88.8],
  ["COc1ccc(-c2nc3ncccc3cc2O)cc1C", "%", 70.1],
  ["CC[C@H]1C[N@@]2CC[C@H]1C[C@@H]2CNS(=O)(=O)c1cccc2cccnc12", "%", 90.6],
  ["C[C@@H]1CN(C(=O)c2cn(C)c3ccccc23)C[C@H](C)O1", "%", 88.9],
  ["COc1ccc(C(=O)Nc2nnc(CC(=O)N/N=C/c3ccccc3OC)s2)cc1", "%", 91.8],
  ["O=Cc1cn(CCC(=O)O)nc1-c1cc2ccccc2o1", "%", 90],
  ["COc1cc2c(cc1OC)CN(Cc1cc(=O)[nH]c(=O)[nH]1)CC2", "%", 103],
  ["Cc1cnn(CC(=O)N2CCCCC2CN2CCCCCC2)c1 (centres unmarked)", "%", 98.9],
  ["CN(CC(=O)NCc1ccc(OCC(N)=O)cc1)C1CCCCC1", "%", 81.7],
  ["Cc1nc(C2CCCC2)cc([C@H]2CN3CC[C@H]2C[C@@H]3CNS(C)(=O)=O)n1", "%", 87.6],
  ["CCNc1nccnc1-c1cccc(O)c1", "%", 103],
  ["COC(=O)c1ccc(NC(=O)c2ccc(-n3cccn3)cc2)cc1", "%", 90.7],
  ["Cc1ccc(N2CCN(CC(O)COc3ccc(C(=O)c4ccc(Cl)cc4)cc3)CC2)c(C)c1 (centres unmarked)", "%", 110],
  ["Cc1ccsc1CN1CCOCC1", "%", 110],
  ["Cc1ccc(-c2ccc(CCC(=O)O)[nH]2)cc1", "%", 109]
]}
